system: HOP-92 NSCLC; assay: NCI tumour cell line growth inhibition, 48 h
Would you mind telling me the reported TGI of each entry?
Field: numeric (µM). Do not append units.

Quick one: TGI of C=[CH][Sn]([CH]=C)([S]c1cccc2cccnc12)[S]c1cccc2cccnc12 ?
3.07

Quick one: TGI of Nc1c(C(=O)Nc2cccc(C(F)(F)F)c2)sc2nc3c(cc12)C(O)CCC3 (stereo not given) ?
25.6

----------
test system: NCI-H23 lung; experiment: NCI tumour cell line growth inhibition, 48 h; in the data active = GI50 below about 0.43 µM; inactive = the rest
Outcomes you can answer with include only these: TRUE = active, FALSE = inactive

Recorded test outcome, item Cc1cc(=O)n2nnc3c4ccccc4ccc3n12
FALSE

Recorded test outcome, item Cc1ccc(C2=Nc3c(N)nc(N)nc3NC(c3cccc(Nc4ccnc5cc(C(F)(F)F)ccc45)c3)C2)cc1 (centres undefined)
FALSE

Recorded test outcome, item CC(C)N(CCCNC(=O)Nc1ccc(C(C)(C)C)cc1)C[C@H]1O[C@@H](n2ccc3c(N)ncnc32)[C@H](O)[C@@H]1O
FALSE

Recorded test outcome, item COc1cccc2c1O/C(=C\c1ncc([N+](=O)[O-])n1C)C2=O
TRUE

Recorded test outcome, item O=C(OCC1OC(n2cc(C(F)(F)F)c(=O)[nH]c2=O)CC1OC(=O)c1ccc([N+](=O)[O-])cc1)c1ccc([N+](=O)[O-])cc1 (centres undefined)
FALSE

Recorded test outcome, item CCc1ccc(C(=O)/C=C/C23c4ccccc4C(c4ccccc42)C2C(=O)NC(=O)C23)cc1 (centres undefined)
FALSE

Recorded test outcome, item Nc1nc2cc(O)ccc2n2cc3c(F)cccc3c12
FALSE

Recorded test outcome, item COc1cc2c3c(n(CCCNC4=NCCS4)c(=O)c2cc1OC)-c1cc2c(cc1C3=O)OCO2
TRUE

Recorded test outcome, item CNCCCNc1nc2ccccc2c2c(=O)c3cc(F)ccc3sc12
FALSE

These measurements were taken from PubChem BioAssay (NCI).
